experiment: Drug concentration in male Sprague-Dawley rat Cerebrospinal fluid at 60 mg/kg, ip measured after 2 hrs by LC-MS analysis; type: ADME, organism-based; details: read-out: Ct
PROPERTY LABEL: concentration at 2 h (ng/mL)
One number for each entry, in ng/mL.

Tell me the measured concentration at 2 h of Cc1ccc(C(=O)NCCc2c[nH]c3ccc(N(C)C)cc23)c(O)c1 , please. 30

---

assay: Drug concentration in male Sprague-Dawley rat plasma at 60 mg/kg, ip measured after 0.5 hrs by LC-MS analysis; type: ADME, organism-based
PROPERTY LABEL: concentration at 0.5 h (ng/mL)
Answers are plain numbers, in ng/mL.

Any idea what its concentration at 0.5 h is? The compound is Cc1ccc(C(=O)NCCc2c[nH]c3ccc(N(C)C)cc23)c(O)c1 4120
